Molecular target: FAS holoenzyme (Homo sapiens, UniProt P49327)
Construct: Fatty acid synthesis by the FAS holoenzyme in cell lysates was measured by incorporation of; endogenous in cells
Sequence (P49327 2-2511 limits assumed): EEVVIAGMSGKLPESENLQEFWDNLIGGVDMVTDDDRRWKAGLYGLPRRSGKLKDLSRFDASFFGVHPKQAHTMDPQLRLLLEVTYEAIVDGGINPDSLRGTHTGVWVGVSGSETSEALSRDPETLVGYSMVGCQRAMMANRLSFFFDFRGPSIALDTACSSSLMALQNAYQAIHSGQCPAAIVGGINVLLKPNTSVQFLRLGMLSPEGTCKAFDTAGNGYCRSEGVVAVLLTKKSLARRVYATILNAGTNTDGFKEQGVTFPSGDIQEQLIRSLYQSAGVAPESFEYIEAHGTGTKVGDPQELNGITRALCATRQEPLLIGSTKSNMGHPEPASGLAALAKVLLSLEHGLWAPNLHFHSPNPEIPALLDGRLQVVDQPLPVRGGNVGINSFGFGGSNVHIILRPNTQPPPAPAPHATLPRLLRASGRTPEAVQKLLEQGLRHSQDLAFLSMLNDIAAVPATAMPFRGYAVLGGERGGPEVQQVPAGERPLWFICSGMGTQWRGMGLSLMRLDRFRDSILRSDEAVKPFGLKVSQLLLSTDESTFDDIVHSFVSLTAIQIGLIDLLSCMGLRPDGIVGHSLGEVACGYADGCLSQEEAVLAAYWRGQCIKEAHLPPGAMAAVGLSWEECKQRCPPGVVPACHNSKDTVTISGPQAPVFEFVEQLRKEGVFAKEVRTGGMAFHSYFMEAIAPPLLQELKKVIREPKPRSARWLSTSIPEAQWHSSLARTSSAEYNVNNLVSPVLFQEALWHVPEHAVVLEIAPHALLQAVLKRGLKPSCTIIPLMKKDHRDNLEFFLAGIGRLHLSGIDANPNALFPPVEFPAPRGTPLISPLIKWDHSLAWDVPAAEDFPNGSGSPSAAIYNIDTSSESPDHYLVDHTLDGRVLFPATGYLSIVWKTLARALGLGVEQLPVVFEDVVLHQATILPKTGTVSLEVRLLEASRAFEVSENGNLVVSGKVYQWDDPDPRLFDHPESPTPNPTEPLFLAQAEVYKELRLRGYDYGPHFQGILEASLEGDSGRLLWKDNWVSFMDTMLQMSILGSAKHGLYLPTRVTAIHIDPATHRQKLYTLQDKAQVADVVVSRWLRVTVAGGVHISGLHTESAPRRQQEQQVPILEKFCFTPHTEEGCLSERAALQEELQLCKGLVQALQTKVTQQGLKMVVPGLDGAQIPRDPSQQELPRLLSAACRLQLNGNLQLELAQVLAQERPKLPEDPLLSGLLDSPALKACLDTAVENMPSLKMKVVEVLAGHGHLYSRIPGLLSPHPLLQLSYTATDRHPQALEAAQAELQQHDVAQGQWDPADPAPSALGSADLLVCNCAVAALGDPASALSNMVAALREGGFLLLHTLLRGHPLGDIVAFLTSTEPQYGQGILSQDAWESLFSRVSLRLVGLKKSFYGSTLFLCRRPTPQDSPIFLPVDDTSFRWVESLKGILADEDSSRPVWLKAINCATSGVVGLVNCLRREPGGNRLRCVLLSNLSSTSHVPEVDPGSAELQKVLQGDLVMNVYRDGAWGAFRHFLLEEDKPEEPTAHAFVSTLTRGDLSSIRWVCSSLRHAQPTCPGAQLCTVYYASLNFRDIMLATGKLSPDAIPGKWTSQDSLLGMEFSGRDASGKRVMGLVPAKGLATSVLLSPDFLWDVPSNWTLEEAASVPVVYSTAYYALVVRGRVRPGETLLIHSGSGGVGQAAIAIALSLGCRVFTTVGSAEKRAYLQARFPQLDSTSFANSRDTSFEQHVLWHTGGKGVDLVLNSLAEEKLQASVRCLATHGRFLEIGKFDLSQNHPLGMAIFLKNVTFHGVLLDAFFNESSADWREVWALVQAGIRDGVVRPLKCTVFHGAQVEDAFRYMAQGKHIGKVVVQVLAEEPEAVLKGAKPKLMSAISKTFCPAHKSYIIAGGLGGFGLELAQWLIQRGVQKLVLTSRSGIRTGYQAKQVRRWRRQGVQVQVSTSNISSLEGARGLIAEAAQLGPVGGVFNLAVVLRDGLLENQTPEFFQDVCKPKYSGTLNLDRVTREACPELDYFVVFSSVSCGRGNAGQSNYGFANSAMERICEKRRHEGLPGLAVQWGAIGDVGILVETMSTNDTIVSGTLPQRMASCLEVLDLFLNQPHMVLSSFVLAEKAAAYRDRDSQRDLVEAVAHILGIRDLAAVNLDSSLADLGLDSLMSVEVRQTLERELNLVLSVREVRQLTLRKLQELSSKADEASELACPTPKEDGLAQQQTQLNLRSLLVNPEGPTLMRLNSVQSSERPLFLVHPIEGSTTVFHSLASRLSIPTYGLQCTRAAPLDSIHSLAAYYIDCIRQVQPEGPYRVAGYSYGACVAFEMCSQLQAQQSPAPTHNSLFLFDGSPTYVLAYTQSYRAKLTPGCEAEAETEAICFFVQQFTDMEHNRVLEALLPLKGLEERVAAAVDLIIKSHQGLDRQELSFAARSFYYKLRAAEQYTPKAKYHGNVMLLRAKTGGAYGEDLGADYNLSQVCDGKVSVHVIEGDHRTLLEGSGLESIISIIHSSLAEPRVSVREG
Experiment: Fatty acid synthesis in vitro, [14C] malonyl-CoA incorporation in MDA-MB-435 cell lysates
Quantity name: IC50

> print(dat)
                         structure.notation  observed
1  CN1C(=O)NC(=O)/C(=C/c2ccc(-c3ccc([N+](=O)[O-])cc3Br)o2)C1=O    ~20 µM
2  Cc1ccc(Br)c(-c2ccc(C=C3C(=O)NC(=S)NC3=O)o2)c1    ~20 µM

* * *

Target: human FAS TE (Homo sapiens, UniProt P49327)
Construct: Expression of the recombinant thioesterase domain of FAS using pTrcHis-TOPO vector (Invitrogen) was as described in Kridel et al. (2004); His tag (from pTrcHis-TOPO vector)
Sequence (P49327 2207-2511 limits assumed): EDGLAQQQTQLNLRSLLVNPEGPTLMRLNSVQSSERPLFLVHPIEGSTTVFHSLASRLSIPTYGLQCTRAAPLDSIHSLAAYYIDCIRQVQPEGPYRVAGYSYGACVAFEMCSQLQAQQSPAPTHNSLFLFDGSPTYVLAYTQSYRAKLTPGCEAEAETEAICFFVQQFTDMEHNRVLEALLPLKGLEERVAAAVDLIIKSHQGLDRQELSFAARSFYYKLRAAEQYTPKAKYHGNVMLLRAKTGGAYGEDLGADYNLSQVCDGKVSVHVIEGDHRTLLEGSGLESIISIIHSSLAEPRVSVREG
Test: Fluorogenic 4-MUH screening assay of recombinant FAS TE (primary and secondary screen)
pIC50: −log10 of the molar value.
Measured pIC50, listed per entry.
Quantity name: pIC50

> print(dat)
                         structure.notation                                       tgt  quantity.name  observed
1  CCOc1ccc(C/C=C2/C(=O)NC(=O)N(c3ccc(OCC)cc3)C2=O)cc1  human FAS TE (Homo sapiens, UniProt P49327)          pIC50      4.84
2  O=C1NC(=O)C(=Cc2ccc(-c3ccccc3C(=O)O)o2)C(=O)N1  human FAS TE (Homo sapiens, UniProt P49327)          pIC50      4.54
3  O=C1NC(=O)C(=Cc2ccc(-c3cc([N+](=O)[O-])ccc3O)o2)C(=O)N1  human FAS TE (Homo sapiens, UniProt P49327)          pIC50      5.04
4  O=C1NC(=O)N(c2ccccc2)C(=O)/C1=C\C/C=C/c1ccccc1[N+](=O)[O-]  human FAS TE (Homo sapiens, UniProt P49327)          pIC50      5.82
5  COc1ccc(-c2ccc(C=C3C(=O)NC(=S)NC3=O)o2)c([N+](=O)[O-])c1  human FAS TE (Homo sapiens, UniProt P49327)          pIC50      5.36
6  CN(C)c1ccc(C/C=C2/C(=O)NC(=S)N(c3ccccc3F)C2=O)cc1  human FAS TE (Homo sapiens, UniProt P49327)          pIC50      5.37
7  O=C1NC(=S)NC(=O)C1=Cc1ccc(-c2ccc(C(=O)O)cc2)o1  human FAS TE (Homo sapiens, UniProt P49327)          pIC50      5.28
8  Cc1cccc(N2C(=O)NC(=O)/C(=C/Nc3ccccc3C)C2=O)c1  human FAS TE (Homo sapiens, UniProt P49327)          pIC50      3.98
9  COc1cccc(N2C(=O)NC(=O)/C(=C/C/C=C/c3ccccc3[N+](=O)[O-])C2=O)c1  human FAS TE (Homo sapiens, UniProt P49327)          pIC50      5.70
